Tested on: SUP-B15
Assay: selective drug sensitivity score (sDSS, relative to normal bone marrow) (sDSS (score)); higher = more potent and effective on the cell line relative to normal bone marrow cells;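 also: ALL cell lines in 384-well plates, five doses spanning 10,000-fold, each plate scaled between vehicle and 100 µmol/L benzalkonium chloride controls, sDSS an adapted area-under-curve metric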
Details: 72 h
Assay readout: selective drug sensitivity score

Molecule	Experimental result
c1cc(CN2CCCNCCNCCCNCC2)ccc1CN1CCCNCCNCCCNCC1 [Plerixafor] (top concentration 10000 nM)	0
COc1cc2nccc(Oc3ccc(NC(=O)C4(C(=O)Nc5ccc(F)cc5)CC4)cc3)c2cc1OC [Cabozantinib] (top concentration 1000 nM)	13.5
Cc1cccc(CC(=O)N2CCc3c2ccc(-c2cn(C)c4ncnc(N)c24)c3F)n1 (top concentration 2500 nM)	7.22
O=C(c1ccc(OCCN2CCCCC2)cc1)c1c(-c2ccc(O)cc2)sc2cc(O)ccc12 [Raloxifene] (top concentration 10000 nM)	-2.18

====

Test system: CCRF-CEM
Experiment: selective drug sensitivity score (sDSS, relative to normal bone marrow) (sDSS (score)); higher = more potent and effective on the cell line relative to normal bone marrow cells
Conditions: 72 h
Items are presented alongside their recorded selective drug sensitivity score.

Molecule	Subject of test	selective drug sensitivity score
C[C@]12C=CC(=O)C=C1CC[C@@H]1[C@@H]2[C@@H](O)C[C@@]2(C)[C@H]1CC[C@]2(O)C(=O)CO [Prednisolone] (top concentration 10000 nM)	CCRF-CEM	6.4
Cc1cccc(-c2[nH]c(CNc3ccccc3F)nc2-c2ccc3ncnn3c2)n1 [Vactosertib (TEW-7197)] (top concentration 2500 nM)	CCRF-CEM	-0.5
CC(C)N(C[C@H]1O[C@@H](n2cnc3c(N)ncnc32)[C@H](O)[C@@H]1O)[C@H]1C[C@@H](CCc2nc3cc(C(C)(C)C)ccc3[nH]2)C1 [Pinometostat] (top concentration 1000 nM)	CCRF-CEM	0
Cc1cc(Nc2cc(CN3CCOCC3)c3nc(C)c(Cc4ccc(Cl)cc4F)n3n2)n[nH]1 [Gandotinib] (top concentration 10000 nM)	CCRF-CEM	5.68
C1=N/C2=N/c3ccc(OCCN4CCCC4)c(c3)COC/C=C/COCc3cccc(c3)C(=C1)N2 [Pacritinib] (top concentration 10000 nM)	CCRF-CEM	-6.1
CS(=O)(=O)c1ccc(-c2cnc(N)c(C(=O)Nc3ccccc3)n2)cc1 [VE-821] (top concentration 10000 nM)	CCRF-CEM	-0.66

====

Test system: PEER
Test: selective drug sensitivity score (sDSS, relative to normal bone marrow) (sDSS (score)); higher = more potent and effective on the cell line relative to normal bone marrow cells
Conditions: 72 h

Compound	selective drug sensitivity score
CN(C)c1cc2c(cc1Sc1nc3c(N)nccc3n1CCNCC(C)(C)C)OCO2 [CUDC-305] (top concentration 10000 nM)	0.42
Nc1nc(NC2CC2)cc(-c2cccc(Cl)c2Cl)n1 [TH588] (top concentration 25000 nM)	12
O=C1Cc2cc(C(=O)NC3C[C@H]4CC[C@@H](C3)N4S(=O)(=O)CC3CCN(CCCC(F)(F)F)CC3)c(Cl)cc2N1 (stereo partly drawn) (top concentration 10000 nM)	0
Cc1cccc(CC(=O)N2CCc3c2ccc(-c2cn(C)c4ncnc(N)c24)c3F)n1 (top concentration 2500 nM)	7.02
O=C(/C=C/c1cccnc1)NCCCCC1CCN(C(=O)c2ccccc2)CC1 [Daporinad] (top concentration 1000 nM)	8.76
CCN(CC)CCOc1ccc(/C(=C(/Cl)c2ccccc2)c2ccccc2)cc1 [Clomifene] (top concentration 10000 nM)	1.02
CC(=O)Nc1ccc(C(=O)Nc2ccccc2N)cc1 [Tacedinaline] (top concentration 1000 nM)	0.68
CCS(=O)(=O)c1cccc(-c2cc(C(=O)NC3CCN(C)CC3)c(C)c3[nH]c4ncc(C)cc4c23)c1 [TAK-901] (top concentration 1000 nM)	12.4
S=C(NCc1ccc2c(c1)OCO2)N1CCN(c2ncnc3c2oc2ccccc23)CC1 [Amuvatinib] (top concentration 10000 nM)	9.36
Cc1ccc(C(=O)Nc2ccc(CN3CCN(C)CC3)c(C(F)(F)F)c2)cc1C#Cc1cnc2cccnn12 [Ponatinib] (top concentration 1000 nM)	18.6
CC[C@@](C)(Nc1ccnc(-c2c[nH]c3ncccc23)n1)C(=O)NCC(F)(F)F [Decernotinib] (top concentration 10000 nM)	-3.84
CN1CCN(c2ccc(C(=O)Nc3n[nH]c4ccc(Cc5cc(F)cc(F)c5)cc34)c(NC3CCOCC3)c2)CC1 [Entrectinib] (top concentration 1000 nM)	0.9
Cc1cccc(-c2[nH]c(CNc3ccccc3F)nc2-c2ccc3ncnn3c2)n1 [Vactosertib (TEW-7197)] (top concentration 2500 nM)	-0.5

====

System: MOLT-4
Assay: selective drug sensitivity score (sDSS, relative to normal bone marrow) (sDSS (score)); higher = more potent and effective on the cell line relative to normal bone marrow cells
Conditions: 72 h
# Lookup of reported selective drug sensitivity score keyed by entry
Assay readout: selective drug sensitivity score

Compound	Experimental result
COc1c(OCCCN2CCOCC2)ccc2c1N=C(NC(=O)c1cnc(N)nc1)N1CCN=C21 [Copanlisib] (top concentration 1000 nM)	4.48
CN(C)C(=O)c1cc2cnc(Nc3ccc(N4CCNCC4)cn3)nc2n1C1CCCC1 [Ribociclib] (top concentration 10000 nM)	-1.02
CC[C@]1(O)C[C@H]2CN(CCc3c([nH]c4ccccc34)[C@@](C(=O)OC)(c3cc4c(cc3OC)N(C)[C@H]3[C@@](O)(C(=O)OC)[C@H](OC(C)=O)[C@]5(CC)C=CCN6CC[C@]43[C@@H]65)C2)C1 [Vinblastine] (top concentration 1000 nM)	-3.5
COc1ccc2[nH]cc(/C=C3\C(=O)Nc4ccc(NC(=O)CCN5CCCCC5)cc43)c2c1 (top concentration 50000 nM)	-1.12
CCOc1cc2ncc(C#N)c(Nc3ccc(OCc4ccccn4)c(Cl)c3)c2cc1NC(=O)/C=C/CN(C)C [Neratinib] (top concentration 1000 nM)	1.38
COc1cc2ncnc(Oc3cccc(NC(=O)Nc4cc(C(C)(C)C(F)(F)F)on4)c3)c2cc1OC (top concentration 10000 nM)	0
CO[C@H]1CC[C@H](N2C(=O)CNc3ncc(-c4ccc(C(C)(C)O)nc4)nc32)CC1 [CC-223] (top concentration 10000 nM)	-0.48
COC(=O)C[C@](O)(CCCC(C)(C)O)C(=O)O[C@@H]1C(OC)=C[C@]23CCCN2CCc2cc4c(cc2[C@H]13)OCO4 [Omacetaxine] (top concentration 10000 nM)	3.32
O=C(c1ccc(C(=O)N2CCC(N3CCCC3)CC2)c(Nc2ccccc2)c1)N1CCC(N2CCCC2)CC1 [UNC1215] (top concentration 10000 nM)	0
CC/C(=C(\c1ccc(O)cc1)c1ccc(OCCN(C)C)cc1)c1ccccc1 [4-hydroxytamoxifen] (top concentration 10000 nM)	0.62
CN1CCN(c2cc(C(=O)Nc3ccc4c(c3)-c3c(c(C(N)=O)nn3-c3ccc(F)cc3)CC4)c(Cl)cn2)CC1 [PHA-408] (top concentration 10000 nM)	0.58
CN1CCN(CCOc2cc(OC3CCOCC3)c3c(Nc4c(Cl)ccc5c4OCO5)ncnc3c2)CC1 [Saracatinib] (top concentration 10000 nM)	1.58
O=C(O)c1ccc(-c2c[nH]c3ncc(-c4ccccc4)cc23)cc1C1CCCC1 (top concentration 10000 nM)	-0.94

====

Tested on: MOLT-16
Experiment: selective drug sensitivity score (sDSS, relative to normal bone marrow) (sDSS (score)); higher = more potent and effective on the cell line relative to normal bone marrow cells
Details: 72 h
Assay readout: selective drug sensitivity score

Compound	Experimental result
CCN(CC)CCCC(C)Nc1c2ccc(Cl)cc2nc2ccc(OC)cc12 (stereo unspecified) [Mepacrine] (top concentration 50000 nM)	-0.8
CC(=O)OC[C@H]1O[C@@H]([S-])[C@H](OC(C)=O)[C@@H](OC(C)=O)[C@@H]1OC(C)=O.CCP(CC)CC.[Au+] [Auranofin] (top concentration 2500 nM)	1.74
Cc1ccc(NC(=O)c2ccc(CN3CCN(C)CC3)cc2)cc1Nc1nccc(-c2cccnc2)n1 [Imatinib] (top concentration 10000 nM)	0.46
CS(=O)(=O)c1ccc(-c2cnc(N)c(C(=O)Nc3ccccc3)n2)cc1 [VE-821] (top concentration 10000 nM)	7.94
CCS(=O)(=O)c1cccc(-c2cc(C(=O)NC3CCN(C)CC3)c(C)c3[nH]c4ncc(C)cc4c23)c1 [TAK-901] (top concentration 1000 nM)	12.6
CO[C@@H](C(=O)N1Cc2[nH]nc(NC(=O)c3ccc(N4CCN(C)CC4)cc3)c2C1)c1ccccc1 [Danusertib] (top concentration 10000 nM)	22.4

====

Tested on: KASUMI-2
Assay: selective drug sensitivity score (sDSS, relative to normal bone marrow) (sDSS (score)); higher = more potent and effective on the cell line relative to normal bone marrow cells
Conditions: 72 h
Would you please tag the item y when its selective drug sensitivity score is 0 or above, and n when it is below?

Compound	Group
Cc1ccc(NC(=O)c2ccc(CN3CCN(C)CC3)cc2)cc1Nc1nccc(-c2cccnc2)n1 [Imatinib] (top concentration 10000 nM)	n
Nc1nccc(-c2c(-c3ccc(F)cc3)ncn2C2CCCCC2)n1 (top concentration 10000 nM)	y
Nc1nc2[nH]cnc2c(=S)[nH]1 [Thioguanine] (top concentration 10000 nM)	y
COc1c(OCCCN2CCOCC2)ccc2c1N=C(NC(=O)c1cnc(N)nc1)N1CCN=C21 [Copanlisib] (top concentration 1000 nM)	y
S=C(NCc1ccc2c(c1)OCO2)N1CCN(c2ncnc3c2oc2ccccc23)CC1 [Amuvatinib] (top concentration 10000 nM)	y
CN1CCN(c2ccc3nc(-c4c(N)c5c(F)cccc5[nH]c4=O)[nH]c3c2)CC1 [Dovitinib] (top concentration 10000 nM)	n
CC(C)(O)CNc1nc(Nc2ccnc(C(F)(F)F)c2)nc(-c2cccc(C(F)(F)F)n2)n1 [Enasidenib] (top concentration 10000 nM)	y
CN(C)C(=N)NC(=N)N [Metformin] (top concentration 100000 nM)	n
COC(=O)C[C@](O)(CCCC(C)(C)O)C(=O)O[C@@H]1C(OC)=C[C@]23CCCN2CCc2cc4c(cc2[C@H]13)OCO4 [Omacetaxine] (top concentration 10000 nM)	y
OC[C@H]1O[C@@H](n2cnc3c2N=CNC[C@H]3O)C[C@@H]1O [Pentostatin] (top concentration 10000 nM)	n
Cc1cccc(CC(=O)N2CCc3c2ccc(-c2cn(C)c4ncnc(N)c24)c3F)n1 (top concentration 2500 nM)	n
Cc1ccc(NC(=O)c2ccc(CN3CC[C@H](N(C)C)C3)c(C(F)(F)F)c2)cc1Nc1nccc(-c2cncnc2)n1 [Bafetinib] (top concentration 1000 nM)	y
NC(=O)c1cccc2cn(-c3ccc(C4CCCNC4)cc3)nc12 (stereo unspecified) [Niraparib] (top concentration 10000 nM)	y
Cc1nn(C)c(COc2ccc(N3CCN(S(=O)(=O)N(C)C)CC3)cc2)c1-c1cccc2c(CCCOc3cccc4ccccc34)c(C(=O)O)n(CCN3CCOCC3)c12 (top concentration 50000 nM)	n
Nc1nc(NC2CC2)cc(-c2cccc(Cl)c2Cl)n1 [TH588] (top concentration 25000 nM)	n
COc1ccc(C[C@H](NC(=O)[C@H](C)NC(=O)CN2CCOCC2)C(=O)N[C@@H](Cc2ccccc2)C(=O)[C@@]2(C)CO2)cc1 [ONX-0914] (top concentration 10000 nM)	y
O=C(NOC[C@H](O)CO)c1ccc(F)c(F)c1Nc1ccc(I)cc1F (top concentration 1000 nM)	y
CC(C)NC[C@@H](C(=O)N1CCN(c2ncnc3c2[C@H](C)C[C@H]3O)CC1)c1ccc(Cl)cc1 [Ipatasertib] (top concentration 10000 nM)	y
COc1cccc2c1c(O)c(C(=O)N(C)c1ccc(C(F)(F)F)cc1)c(=O)n2C [Tasquinimod] (top concentration 10000 nM)	n
CCOc1ccccc1-n1c(C(C)N2CCN(C(=O)COc3ccc(Cl)cc3)CC2)nc2ccccc2c1=O (stereo unspecified) [Erastin] (top concentration 10000 nM)	y
Nc1cc(F)ccc1NC(=O)/C=C/c1cnn(C/C=C/c2ccccc2)c1 [RGFP966] (top concentration 10000 nM)	y
Nc1nc2[nH]cc(CCc3ccc(C(=O)N[C@@H](CCC(=O)O)C(=O)O)cc3)c2c(=O)[nH]1 [Pemetrexed] (top concentration 10000 nM)	y
NC(=O)NO [Hydroxyurea] (top concentration 1000000 nM)	n
